Biological target: Transcription factor EB (Homo sapiens, UniProt P19484)
Sequence (P19484 whole entry): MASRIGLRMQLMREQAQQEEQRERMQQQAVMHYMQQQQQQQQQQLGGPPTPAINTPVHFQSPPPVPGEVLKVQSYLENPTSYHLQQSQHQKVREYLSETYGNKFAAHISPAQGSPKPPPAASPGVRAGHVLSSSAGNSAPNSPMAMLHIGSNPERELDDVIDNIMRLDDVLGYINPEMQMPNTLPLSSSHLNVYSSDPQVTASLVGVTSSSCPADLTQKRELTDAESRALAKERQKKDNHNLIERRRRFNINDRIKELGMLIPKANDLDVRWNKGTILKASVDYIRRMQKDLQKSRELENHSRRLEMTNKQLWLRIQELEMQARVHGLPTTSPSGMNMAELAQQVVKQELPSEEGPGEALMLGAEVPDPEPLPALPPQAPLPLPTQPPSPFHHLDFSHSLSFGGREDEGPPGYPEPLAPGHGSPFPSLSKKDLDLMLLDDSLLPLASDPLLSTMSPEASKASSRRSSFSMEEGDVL
Assay: Binding affinity to full length N-terminal his6-tagged human TFEB expressed in Escherichia coli by isothermal titration calorimetry analysis
OBSERVED_PROPERTY: pEC50
Note: pEC50 values are expressed as the negative base-10 logarithm of concentration in M.

Data request: Notebook: pull reported pEC50 for Transcription factor EB (Homo sapiens, UniProt P19484), entry `COc1ccccc1/C=C/C(=O)/C=C/c1ccccc1OC`
Data returned: 5.66
